System: 282377-053-R-J1-PDC complex spheroids, viability
Assay: Anticancer human tumor 282377-053-R-J1-PDC patient-derived colon adenocarcinoma cell line growth inhibition [GQUAD]
Conditions: second compound 0.0316 µM; first compound 0.0316 µM; hits give low values
# viability, T/C per entry

>  <molecule>
CCc1c2c(nc3ccc(O)cc13)-c1cc3c(c(=O)n1C2)COC(=O)[C@]3(O)CC + Cc1[nH]c2ccc(F)cc2c1-c1nc2c3cccnc3c3ncccc3c2[nH]1

>  <viability, T/C [%]>
54.4

$$$$
>  <molecule>
CC(C)n1c(=O)n(C)c2cnc3cc(F)c(-c4ccc(OCCCN5CCCCC5)nc4)cc3c21 + CN(C)c1ccc(Nc2c3ccc(NC(=O)CCN4CCCC4)cc3nc3cc(NC(=O)CCN4CCCC4)ccc23)cc1

>  <viability, T/C [%]>
97.9

$$$$
>  <molecule>
CC(C)n1c(=O)n(C)c2cnc3cc(F)c(-c4ccc(OCCCN5CCCCC5)nc4)cc3c21 + Cc1cnc(CNC(=O)c2c(=O)c3ccc(N4CCCN(C)CC4)nc3n3c2sc2ccccc23)cn1

>  <viability, T/C [%]>
101

$$$$
>  <molecule>
CC[C@@]1(O)C(=O)OCc2c1cc1n(c2=O)Cc2cc3c(CN(C)C)c(O)ccc3nc2-1 + Cc1[nH]c2ccc(F)cc2c1-c1nc2c3cccnc3c3ncccc3c2[nH]1

>  <viability, T/C [%]>
93.1

$$$$
>  <molecule>
C#Cc1c(F)ccc2cc(O)cc(-c3ncc4c(N5CC6CCC(C5)N6)nc(OCC56CCCN5CC(F)C6)nc4c3F)c12 (stereo not given) + CN(C)c1ccc(Nc2c3ccc(NC(=O)CCN4CCCC4)cc3nc3cc(NC(=O)CCN4CCCC4)ccc23)cc1

>  <viability, T/C [%]>
98

$$$$
>  <molecule>
CC(=O)O[C@H]1C(=O)[C@@]2(C)[C@H]([C@H](OC(=O)c3ccccc3)[C@]3(O)C[C@H](OC(=O)[C@H](O)[C@@H](NC(=O)c4ccccc4)c4ccccc4)C(C)=C1C3(C)C)[C@]1(OC(C)=O)CO[C@@H]1C[C@@H]2O + Cc1cnc(CNC(=O)c2c(=O)c3ccc(N4CCCN(C)CC4)nc3n3c2sc2ccccc23)cn1

>  <viability, T/C [%]>
42.7

$$$$
>  <molecule>
O=C(NO)c1cnc(N2CCN(S(=O)(=O)c3ccc4ccccc4c3)CC2)nc1 + CN(C)c1ccc(Nc2c3ccc(NC(=O)CCN4CCCC4)cc3nc3cc(NC(=O)CCN4CCCC4)ccc23)cc1

>  <viability, T/C [%]>
107

$$$$
>  <molecule>
CC1COCCN1c1cc(C2(S(C)(=N)=O)CC2)nc(-c2ccnc3[nH]ccc23)n1 (stereo not given) + Cc1cnc(CNC(=O)c2c(=O)c3ccc(N4CCCN(C)CC4)nc3n3c2sc2ccccc23)cn1

>  <viability, T/C [%]>
94.2

$$$$
>  <molecule>
CC1COCCN1c1cc(C2(O)CC3CCC(C2)O3)c2cnn(-c3ccn[nH]3)c2n1 (stereo not given) + CN(C)c1ccc(Nc2c3ccc(NC(=O)CCN4CCCC4)cc3nc3cc(NC(=O)CCN4CCCC4)ccc23)cc1

>  <viability, T/C [%]>
93.4

$$$$
>  <molecule>
Cc1[nH]c2ccccc2c1CCNCc1ccc(/C=C/C(=O)NO)cc1 + Cc1cnc(CNC(=O)c2c(=O)c3ccc(N4CCCN(C)CC4)nc3n3c2sc2ccccc23)cn1

>  <viability, T/C [%]>
95.2

$$$$
>  <molecule>
COc1ncnc(C2CC2)c1-c1ncc2cnn(Cc3ccc(-c4nc(C(F)(F)F)cn4C(C)C)cc3)c2n1 + CN(C)c1ccc(Nc2c3ccc(NC(=O)CCN4CCCC4)cc3nc3cc(NC(=O)CCN4CCCC4)ccc23)cc1

>  <viability, T/C [%]>
108

$$$$
>  <molecule>
CC1COCCN1c1cc(C2(O)CC3CCC(C2)O3)c2cnn(-c3ccn[nH]3)c2n1 (stereo not given) + Cc1[nH]c2ccc(F)cc2c1-c1nc2c3cccnc3c3ncccc3c2[nH]1

>  <viability, T/C [%]>
81.3

$$$$
>  <molecule>
COc1ncnc(C2CC2)c1-c1ncc2cnn(Cc3ccc(-c4nc(C(F)(F)F)cn4C(C)C)cc3)c2n1 + Cc1cnc(CNC(=O)c2c(=O)c3ccc(N4CCCN(C)CC4)nc3n3c2sc2ccccc23)cn1

>  <viability, T/C [%]>
108

$$$$
>  <molecule>
Cc1cccc(N(C)C(=O)C2C(O)CCN2c2nc(C)cc(C(F)(F)F)c2C#N)c1 (stereo not given) + Cc1cnc(CNC(=O)c2c(=O)c3ccc(N4CCCN(C)CC4)nc3n3c2sc2ccccc23)cn1

>  <viability, T/C [%]>
114

$$$$
>  <molecule>
O=c1[nH]cc(F)c(=O)[nH]1 + Cc1cnc(CNC(=O)c2c(=O)c3ccc(N4CCCN(C)CC4)nc3n3c2sc2ccccc23)cn1

>  <viability, T/C [%]>
98.6

$$$$
>  <molecule>
C=CCn1c(=O)c2cnc(Nc3ccc(N4CCN(C)CC4)cc3)nc2n1-c1cccc(C(C)(C)O)n1 + Cc1[nH]c2ccc(F)cc2c1-c1nc2c3cccnc3c3ncccc3c2[nH]1

>  <viability, T/C [%]>
101

$$$$
>  <molecule>
O=C(NO)c1cnc(N2CCN(S(=O)(=O)c3ccc4ccccc4c3)CC2)nc1 + Cc1cnc(CNC(=O)c2c(=O)c3ccc(N4CCCN(C)CC4)nc3n3c2sc2ccccc23)cn1

>  <viability, T/C [%]>
98.6

$$$$
>  <molecule>
COc1ccc([C@@H](O)c2cc(-c3ncnc4cc(N5CCOCC5)ccc34)c(F)cc2Cl)nn1 + Cc1[nH]c2ccc(F)cc2c1-c1nc2c3cccnc3c3ncccc3c2[nH]1

>  <viability, T/C [%]>
101

$$$$
>  <molecule>
CC(=O)O[C@H]1C(=O)[C@@]2(C)[C@H]([C@H](OC(=O)c3ccccc3)[C@]3(O)C[C@H](OC(=O)[C@H](O)[C@@H](NC(=O)c4ccccc4)c4ccccc4)C(C)=C1C3(C)C)[C@]1(OC(C)=O)CO[C@@H]1C[C@@H]2O + Cc1[nH]c2ccc(F)cc2c1-c1nc2c3cccnc3c3ncccc3c2[nH]1

>  <viability, T/C [%]>
115

$$$$
>  <molecule>
CC1COCCN1c1cc(C2(O)CC3CCC(C2)O3)c2cnn(-c3ccn[nH]3)c2n1 (stereo not given) + Cc1cnc(CNC(=O)c2c(=O)c3ccc(N4CCCN(C)CC4)nc3n3c2sc2ccccc23)cn1

>  <viability, T/C [%]>
96.4

$$$$

====

System: 282377-053-R-J1-PDC complex spheroids, viability
Test: Anticancer human tumor 282377-053-R-J1-PDC cell line growth inhibition [GQUAD];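 also: spheroids exposed to compounds for 7 days before readout; percent of vehicle DMSO control viability with 100% = untreated-like growth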
Details: second compound 10 µM; first compound 0.0316 µM; hits give low values
Description: DNA G-quadruplex Stabilizer Agents in Combinations in Complex Spheroids A high-throughput screen of multi-cell type tumor spheroids was designed to identify active combinations of DNA G-quadruplex stabilizer agents and targeted small molecules. […] Compounds. […] If the clinical Cmax for an agent had not been determined, the highest concentration tested was 10 microM. […]
# viability, T/C per entry
readout: viability, T/C (%)

>  <compound>
CC1COCCN1c1cc(C2(S(C)(=N)=O)CC2)nc(-c2ccnc3[nH]ccc23)n1 (stereo not given) + Cc1cnc(CNC(=O)c2c(=O)c3ccc(N4CCCN(C)CC4)nc3n3c2sc2ccccc23)cn1

>  <targetOrSystem>
282377-053-R-J1-PDC complex spheroids, viability

>  <readout>
viability, T/C

>  <resultUnits>
%

>  <observedResult>
42.1

$$$$
>  <compound>
COc1cccc2c1C(=O)c1c(O)c3c(c(O)c1C2=O)CC(O)(C(=O)CO)CC3OC1CC(N)C(O)C(C)O1 (stereo not given) + Cc1[nH]c2ccc(F)cc2c1-c1nc2c3cccnc3c3ncccc3c2[nH]1

>  <targetOrSystem>
282377-053-R-J1-PDC complex spheroids, viability

>  <readout>
viability, T/C

>  <resultUnits>
%

>  <observedResult>
36.5

$$$$
>  <compound>
C#Cc1c(F)ccc2cc(O)cc(-c3ncc4c(N5CC6CCC(C5)N6)nc(OCC56CCCN5CC(F)C6)nc4c3F)c12 (stereo not given) + CN(C)c1ccc(Nc2c3ccc(NC(=O)CCN4CCCC4)cc3nc3cc(NC(=O)CCN4CCCC4)ccc23)cc1

>  <targetOrSystem>
282377-053-R-J1-PDC complex spheroids, viability

>  <readout>
viability, T/C

>  <resultUnits>
%

>  <observedResult>
83.1

$$$$
>  <compound>
CCc1c2c(nc3ccc(O)cc13)-c1cc3c(c(=O)n1C2)COC(=O)[C@]3(O)CC + CN(C)c1ccc(Nc2c3ccc(NC(=O)CCN4CCCC4)cc3nc3cc(NC(=O)CCN4CCCC4)ccc23)cc1

>  <targetOrSystem>
282377-053-R-J1-PDC complex spheroids, viability

>  <readout>
viability, T/C

>  <resultUnits>
%

>  <observedResult>
86.2

$$$$
>  <compound>
O=C(c1cc(Cc2n[nH]c(=O)c3ccccc23)ccc1F)N1CCN(C(=O)C2CC2)CC1 + Cc1cnc(CNC(=O)c2c(=O)c3ccc(N4CCCN(C)CC4)nc3n3c2sc2ccccc23)cn1

>  <targetOrSystem>
282377-053-R-J1-PDC complex spheroids, viability

>  <readout>
viability, T/C

>  <resultUnits>
%

>  <observedResult>
52.9

$$$$
>  <compound>
COc1ncnc(C2CC2)c1-c1ncc2cnn(Cc3ccc(-c4nc(C(F)(F)F)cn4C(C)C)cc3)c2n1 + Cc1cnc(CNC(=O)c2c(=O)c3ccc(N4CCCN(C)CC4)nc3n3c2sc2ccccc23)cn1

>  <targetOrSystem>
282377-053-R-J1-PDC complex spheroids, viability

>  <readout>
viability, T/C

>  <resultUnits>
%

>  <observedResult>
41.1

$$$$
>  <compound>
CC(C)(O)C1CCC(Nc2ccc3ncc(-c4cccc(C(F)(F)F)c4)n3n2)CC1 (stereo not given) + CN(C)c1ccc(Nc2c3ccc(NC(=O)CCN4CCCC4)cc3nc3cc(NC(=O)CCN4CCCC4)ccc23)cc1

>  <targetOrSystem>
282377-053-R-J1-PDC complex spheroids, viability

>  <readout>
viability, T/C

>  <resultUnits>
%

>  <observedResult>
97.3

$$$$
>  <compound>
C#Cc1c(F)ccc2cc(O)cc(-c3ncc4c(N5CC6CCC(C5)N6)nc(OCC56CCCN5CC(F)C6)nc4c3F)c12 (stereo not given) + Cc1[nH]c2ccc(F)cc2c1-c1nc2c3cccnc3c3ncccc3c2[nH]1

>  <targetOrSystem>
282377-053-R-J1-PDC complex spheroids, viability

>  <readout>
viability, T/C

>  <resultUnits>
%

>  <observedResult>
34.4

$$$$
>  <compound>
CC1COCCN1c1cc(C2(S(C)(=N)=O)CC2)nc(-c2ccnc3[nH]ccc23)n1 (stereo not given) + Cc1[nH]c2ccc(F)cc2c1-c1nc2c3cccnc3c3ncccc3c2[nH]1

>  <targetOrSystem>
282377-053-R-J1-PDC complex spheroids, viability

>  <readout>
viability, T/C

>  <resultUnits>
%

>  <observedResult>
41.6

$$$$
>  <compound>
C=CC(=O)N1CCN(c2nc(=O)n(-c3c(C)ccnc3C(C)C)c3nc(-c4c(O)cccc4F)c(F)cc23)C(C)C1 (stereo not given) + Cc1[nH]c2ccc(F)cc2c1-c1nc2c3cccnc3c3ncccc3c2[nH]1

>  <targetOrSystem>
282377-053-R-J1-PDC complex spheroids, viability

>  <readout>
viability, T/C

>  <resultUnits>
%

>  <observedResult>
28.3

$$$$
